protocol_notes: Permeability of compound across apical to basal compartment in PBS at pH 5.5 at 10 uM after 4 hrs by PAMPA
Format: ADME
measurement_context: pH 5.5, 4 h
value_kind: permeability (%)
Give bare numbers, in %.

{"smiles_string": "CCCCC(=O)N1CCC(NC(=O)c2nn(-c3ccc(Cl)cc3Cl)c(-c3ccc(Cl)cc3)c2C)CC1", "permeability (%)": 1.1}
{"smiles_string": "Cc1c(C(=O)NC2CCN(C(=O)C(F)(F)F)CC2)nn(-c2ccc(Cl)cc2Cl)c1-c1ccc(Cl)cc1", "permeability (%)": 0.4}
{"smiles_string": "CCS(=O)(=O)N1CCC(NC(=O)c2nn(-c3ccc(Cl)cc3Cl)c(-c3ccc(Cl)cc3)c2C)CC1", "permeability (%)": 0.1}

List reported permeability for each of these molecules:
1. Cc1c(C(=O)NC2CCN(S(=O)(=O)c3ccccc3)CC2)nn(-c2ccc(Cl)cc2Cl)c1-c1ccc(Cl)cc1
2. Cc1c(C(=O)NC2CCN(S(=O)(=O)CC(C)C)CC2)nn(-c2ccc(Cl)cc2Cl)c1-c1ccc(Cl)cc1
3. Cc1c(C(=O)NC2CCN(C(=O)c3ccccc3)CC2)nn(-c2ccc(Cl)cc2Cl)c1-c1ccc(Cl)cc1
4. Cc1c(C(=O)NC2CCN(C(=O)C3CCCC3)CC2)nn(-c2ccc(Cl)cc2Cl)c1-c1ccc(Cl)cc1

0.03
0.1
0.3
0.2

List reported permeability for each of these molecules:
1. Cc1c(C(=O)NC2CCN(S(=O)(=O)CCC(F)(F)F)CC2)nn(-c2ccc(Cl)cc2Cl)c1-c1ccc(Cl)cc1
2. Cc1c(C(=O)NC2CCN(C(=O)OC(C)C)CC2)nn(-c2ccc(Cl)cc2Cl)c1-c1ccc(Cl)cc1
3. CCCOC(=O)N1CCC(NC(=O)c2nn(-c3ccc(Cl)cc3Cl)c(-c3ccc(Cl)cc3)c2C)CC1
4. Cc1c(C(=O)NC2CCN(C(=O)CC(C)C)CC2)nn(-c2ccc(Cl)cc2Cl)c1-c1ccc(Cl)cc1

[0.1, 0, 1.4, 3.3]

====

Here's what we have: Ki numbers for Cannabinoid receptor 2 (Homo sapiens).

{"smiles_string": "CCS(=O)(=O)N1CCC(NC(=O)c2nn(-c3ccc(Cl)cc3Cl)c(-c3ccc(Cl)cc3)c2C)CC1", "target_system": "Cannabinoid receptor 2 (Homo sapiens)", "Ki": "4.41 µM"}
{"smiles_string": "Cc1c(C(=O)NC2CCN(C(=O)C3CCCC3)CC2)nn(-c2ccc(Cl)cc2Cl)c1-c1ccc(Cl)cc1", "target_system": "Cannabinoid receptor 2 (Homo sapiens)", "Ki": "2.5 µM"}
{"smiles_string": "Cc1c(C(=O)NC2CCN(S(=O)(=O)CC(C)C)CC2)nn(-c2ccc(Cl)cc2Cl)c1-c1ccc(Cl)cc1", "target_system": "Cannabinoid receptor 2 (Homo sapiens)", "Ki": "6.21 µM"}
{"smiles_string": "Cc1c(C(=O)NC2CCN(C(=O)CC(C)C)CC2)nn(-c2ccc(Cl)cc2Cl)c1-c1ccc(Cl)cc1", "target_system": "Cannabinoid receptor 2 (Homo sapiens)", "Ki": "1.81 µM"}

List reported Ki for each of these molecules:
1. Cc1c(C(=O)NC2CCN(S(=O)(=O)c3ccccc3)CC2)nn(-c2ccc(Cl)cc2Cl)c1-c1ccc(Cl)cc1
2. Cc1c(C(=O)NC2CCN(C(=O)C(F)(F)F)CC2)nn(-c2ccc(Cl)cc2Cl)c1-c1ccc(Cl)cc1
3. CCCOC(=O)N1CCC(NC(=O)c2nn(-c3ccc(Cl)cc3Cl)c(-c3ccc(Cl)cc3)c2C)CC1

["> 20 µM", "1.04 µM", "1.54 µM"]

Record Cc1c(C(=O)NC2CCN(S(=O)(=O)CCC(F)(F)F)CC2)nn(-c2ccc(Cl)cc2Cl)c1-c1ccc(Cl)cc1 , field Ki: 4.72 µM
